experiment.description: Kinetic solubility assay (CLND), potassium phosphate buffer pH 6.8
Type: physicochemical
assay.setup: potassium phosphate buffer, pH 6.8, aqueous buffer, kinetic from dmso stock, pH 6.8, 2% DMSO, 24 hours at ambient temperature
As shown below, each of these molecules has a reported solubility at 24 h value.
quantity: solubility at 24 h (µg/mL)

>>> df
                                   molecule   val
0  C[C@@]12CC[C@@](n3cc4cc(C(=O)Nc5cccn(C6CC6)c5=O)c(OC5CCC5)cc4n3)(CO1)C2 (single isomer, unassigned)  19.9
1  CC(C)Oc1nc2nn(C[C@H]3CCOC3)cc2cc1C(=O)Nc1cccn(C2CC2)c1=O  45.6
2  CC(C)Oc1nc2nn(C34COC(C)(C3)C4)cc2cc1C(=O)Nc1cccn([C@@H]2C[C@@H]2F)c1=O [Example 83]  16.7

====

experiment.description: Kinetic solubility assay (CLND), potassium phosphate buffer pH 6.8
Assay type: physicochemical
assay.setup: potassium phosphate buffer, pH 6.8, aqueous buffer, kinetic from dmso stock, pH 6.8, 2% DMSO, 24 hours at ambient temperature
quantity: solubility at 24 h (µg/mL)

In [3]: df
Out[3]:
                                   compound   val
0  CC(C)Oc1cc2nn([C@]34CC[C@](C)(C3)OC4)cc2cc1C(=O)Nc1cccn([C@@H]2C[C@H]2F)c1=O (single isomer, unassigned)  51.5
1  C[C@@H]1C[C@@H]1n1cccc(NC(=O)c2cc3cn(C45COC(C4)C5)nc3nc2OC2CC2)c1=O  46.7
2  CC(C)Oc1cc2nn([C@@]34CC[C@@](C)(C3)OC4)cc2cc1C(=O)Nc1cccn([C@@H]2C[C@H]2F)c1=O (single isomer, unassigned)  55.4

====

experiment.description: Kinetic solubility assay (CLND), potassium phosphate buffer pH 6.8
Assay type: physicochemical
assay.setup: potassium phosphate buffer, pH 6.8, aqueous buffer, kinetic from dmso stock, pH 6.8, 2% DMSO, 24 hours at ambient temperature
Classification field: Condition met = solubility at 24 h at or over 30 µg/mL; Condition not met = solubility at 24 h under 30 µg/mL.

In [3]: df
Out[3]:
                                   compound         class_name
0  CC(C)Oc1cc2nn(C34COC(CF)(C3)C4)cc2cc1C(=O)Nc1cccn([C@H]2C[C@H]2C)c1=O      Condition met
1  CC(C)Oc1nc2nn(C34COC(C)(C3)C4)cc2cc1C(=O)Nc1cccn([C@H]2C[C@@H]2F)c1=O (single isomer, unassigned)  Condition not met
2  COC[C@]12CC[C@](n3cc4cc(C(=O)Nc5cccn(C6CC6)c5=O)c(OC(C)C)nc4n3)(CO1)C2      Condition met
3  CC(C)Oc1cc2nn(C34COC(C3)C4)cc2cc1C(=O)Nc1cccn([C@H]2C[C@H]2F)c1=O      Condition met
4  CC(C)Oc1cc2nn(C34COC(C)(C3)C4)cc2cc1C(=O)Nc1cccn([C@@H]2C[C@H]2C)c1=O (racemic)  Condition not met
5  CC(C)Oc1cc2nn(C34COC(CF)(C3)C4)cc2cc1C(=O)Nc1cccn([C@@H]2C[C@H]2C)c1=O (single isomer, unassigned)  Condition not met

====

As shown below, each of these compounds has a reported solubility at 24 h value.
experiment.description: Kinetic solubility assay (CLND), potassium phosphate buffer pH 6.8
Format: physicochemical
assay.setup: potassium phosphate buffer, pH 6.8, aqueous buffer, kinetic from dmso stock, pH 6.8, 2% DMSO, 24 hours at ambient temperature
quantity: solubility at 24 h (µg/mL)

                                   compound  readout_units   val
0  CC(C)Oc1nc2nn(C34COC(C)(C3)C4)cc2cc1C(=O)Nc1cccn([C@@H]2C[C@@H]2F)c1=O (racemic) [Example 32]          µg/mL    16
1  C[C@@H]1C[C@@H]1n1cccc(NC(=O)c2cc3cn(C45COC(C)(C4)C5)nc3nc2OC2CC2)c1=O          µg/mL  38.1
2  CC(C)Oc1nc2nn([C@@]34CC[C@@](C)(C3)OC4)cc2cc1C(=O)Nc1cccn(C2CC2)c1=O (single isomer, unassigned)          µg/mL  1.09

====

system.tested: IRAK4 (Homo sapiens (Human))
experiment.description: IRAK4 2-hour 1 mM ATP Biochemical Assay (MesoScale Detection format)
assay.setup: 100 pM IRAK4, read-out: IRAK4 IC50
pIC50: −log10 of the molar value.
As shown below, each of these compounds has a reported pIC50 value.
quantity: pIC50

In [3]: df
Out[3]:
                           substance_smiles   val
0  COCC12CC(n3cc4cc(C(=O)Nc5cccn([C@@H]6C[C@@H]6C)c5=O)c(OC(C)C)nc4n3)(CO1)C2  7.56
1  CC12CC(n3cc4cc(C(=O)Nc5cccn(C6CC6)c5=O)c(OC5CCC5)cc4n3)(CO1)C2  9.05
2  COCC12CC(n3cc4cc(C(=O)Nc5cccn([C@H]6C[C@H]6F)c5=O)c(OC(C)C)cc4n3)(CO1)C2  9.40
3  CC(C)Oc1cc2nn(C34COC(CF)(C3)C4)cc2cc1C(=O)Nc1cccn([C@H]2C[C@H]2C)c1=O  9.15

====

system.tested: UniProtKB Q9NWZ3
experiment.description: IRAK4 2-hour 1 mM ATP Biochemical Assay (MesoScale Detection format)
assay.setup: 100 pM IRAK4, comparator table, read-out: IRAK4 Biochemical IC50
pIC50: −log10 of the molar value.

compound	pIC50
CC(C)Oc1nc2nn([C@]34CC[C@](C)(C3)OC4)cc2cc1C(=O)Nc1cccn(C)c1=O (single isomer, unassigned) [Comparator 1C, reference compound]	9.40

====

experiment.description: Kinetic solubility assay (CLND), potassium phosphate buffer pH 6.8
Format: physicochemical
assay.setup: potassium phosphate buffer, pH 6.8, aqueous buffer, kinetic from dmso stock, pH 6.8, 2% DMSO, 24 hours at ambient temperature
Measured solubility at 24 h determines class: bin A: < 50 µg/mL; bin B: ≥ 50 µg/mL and < 60 µg/mL; bin C: ≥ 60 µg/mL

>>> df
                                    compound  class_name
 0  CC(C)Oc1cc2nn(C34COC(CF)(C3)C4)cc2cc1C(=O)Nc1cccn([C@H]2C[C@H]2F)c1=O       bin A
 1  C[C@@H]1C[C@@H]1n1cccc(NC(=O)c2cc3cn(C45COC(C)(C4)C5)nc3nc2OC2CCC2)c1=O       bin A
 2  CC(C)Oc1nc2nn(C34COC(C3)C4)cc2cc1C(=O)Nc1cccn(C2CC2)c1=O       bin A
 3  COCC12CC(n3cc4cc(C(=O)Nc5cccn([C@H]6C[C@@H]6F)c5=O)c(OC(C)C)cc4n3)(CO1)C2 (single isomer, unassigned)       bin C
 4  CC(C)Oc1cc2nn(C34COC(C)(C3)C4)cc2cc1C(=O)Nc1cccn([C@@H]2C[C@@H]2F)c1=O (racemic) [Example 35]       bin C
 5  COCC12CC(n3cc4cc(C(=O)Nc5cccn([C@H]6C[C@@H]6F)c5=O)c(OC5CCC5)nc4n3)(CO1)C2 (single isomer, unassigned)       bin A
 6  CC(C)Oc1cc2nn([C@]34CC[C@](C)(C3)OC4)cc2cc1C(=O)Nc1cccn([C@H]2C[C@@H]2F)c1=O (single isomer, unassigned)       bin B
 7  CC(C)Oc1cc2nn([C@@]34CC[C@@](C)(C3)OC4)cc2cc1C(=O)Nc1cccn([C@H]2C[C@@H]2F)c1=O (single isomer, unassigned)       bin B
 8  CC(C)Oc1nc2nn([C@]34CC[C@](C)(C3)OC4)cc2cc1C(=O)Nc1cccn(C2CC2)c1=O (single isomer, unassigned)       bin A
 9  CC(C)Oc1cc2nn(C34COC(C)(C3)C4)cc2cc1C(=O)Nc1cccn([C@H]2C[C@H]2F)c1=O (single isomer, unassigned)       bin B
10  CC12CC(n3cc4cc(C(=O)Nc5cccn(C6CC6)c5=O)c(OC5CCC5)cc4n3)(CO1)C2       bin C

====

system.tested: IRAK4 (Homo sapiens (Human), UniProt Q9NWZ3)
Sequence (Q9NWZ3 whole entry): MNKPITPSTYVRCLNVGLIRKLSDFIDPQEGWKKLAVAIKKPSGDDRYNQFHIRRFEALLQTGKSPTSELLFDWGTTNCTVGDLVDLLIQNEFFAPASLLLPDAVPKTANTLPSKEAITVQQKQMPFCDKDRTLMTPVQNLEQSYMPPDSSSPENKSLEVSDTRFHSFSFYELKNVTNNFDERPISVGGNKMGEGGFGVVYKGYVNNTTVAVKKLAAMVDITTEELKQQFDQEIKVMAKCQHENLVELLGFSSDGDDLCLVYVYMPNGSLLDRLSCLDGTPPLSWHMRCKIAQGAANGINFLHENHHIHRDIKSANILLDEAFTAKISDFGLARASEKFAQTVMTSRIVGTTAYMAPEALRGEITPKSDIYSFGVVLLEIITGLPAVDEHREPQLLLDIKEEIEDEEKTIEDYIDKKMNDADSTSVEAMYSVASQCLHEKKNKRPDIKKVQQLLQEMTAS
experiment.description: IRAK4 2-hour 1 mM ATP Biochemical Assay (MesoScale Detection format)
assay.setup: 100 pM IRAK4, read-out: IRAK4 IC50
pIC50: −log10 of the molar value.
quantity: pIC50

                                   molecule  quantity   val
0  O=C(Nc1cccn([C@H]2C[C@H]2F)c1=O)c1cc2cn([C@]34CC[C@H](C3)OC4)nc2nc1OC1CC1 (single isomer, unassigned)     pIC50  9.70
1  C[C@@H]1C[C@@H]1n1cccc(NC(=O)c2cc3cn(C45COC(CF)(C4)C5)nc3nc2OC2CC2)c1=O     pIC50  8.77
2  CC(C)Oc1cc2nn(C34COC(CF)(C3)C4)cc2cc1C(=O)Nc1cccn([C@@H]2C[C@@H]2C)c1=O     pIC50  7.43

From: patent US20250268877A1
